Molecular target: UniProtKB P08235
Sequence (P08235 whole entry): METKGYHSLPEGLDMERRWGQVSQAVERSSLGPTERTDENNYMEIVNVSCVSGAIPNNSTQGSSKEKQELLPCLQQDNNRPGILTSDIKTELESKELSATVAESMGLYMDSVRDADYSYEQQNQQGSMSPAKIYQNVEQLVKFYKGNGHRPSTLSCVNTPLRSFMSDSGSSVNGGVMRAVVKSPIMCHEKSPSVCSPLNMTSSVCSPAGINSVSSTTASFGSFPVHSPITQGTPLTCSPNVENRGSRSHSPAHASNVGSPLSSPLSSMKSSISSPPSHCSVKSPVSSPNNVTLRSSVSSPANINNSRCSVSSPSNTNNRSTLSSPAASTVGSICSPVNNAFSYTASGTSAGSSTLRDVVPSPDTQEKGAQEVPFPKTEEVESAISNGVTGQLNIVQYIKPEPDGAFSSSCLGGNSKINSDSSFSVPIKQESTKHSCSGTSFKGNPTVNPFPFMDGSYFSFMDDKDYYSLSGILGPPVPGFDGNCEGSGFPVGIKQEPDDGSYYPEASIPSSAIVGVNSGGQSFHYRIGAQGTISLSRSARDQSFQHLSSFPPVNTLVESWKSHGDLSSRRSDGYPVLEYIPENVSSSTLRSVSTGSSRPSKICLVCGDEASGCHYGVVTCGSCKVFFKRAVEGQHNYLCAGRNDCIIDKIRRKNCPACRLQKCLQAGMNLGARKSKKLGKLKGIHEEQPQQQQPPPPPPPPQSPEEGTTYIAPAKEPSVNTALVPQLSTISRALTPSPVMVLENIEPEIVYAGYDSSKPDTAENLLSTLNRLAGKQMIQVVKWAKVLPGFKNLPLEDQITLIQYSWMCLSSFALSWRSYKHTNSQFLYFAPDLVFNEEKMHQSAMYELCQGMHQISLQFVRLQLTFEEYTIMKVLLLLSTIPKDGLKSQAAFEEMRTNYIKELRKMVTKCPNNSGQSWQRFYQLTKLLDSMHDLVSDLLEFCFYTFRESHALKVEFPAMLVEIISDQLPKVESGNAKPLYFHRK
Assay: Agonist activity at mineralocorticoid receptor in human A549 cells
Quantity: EC50

The following compounds have reported results that may help.
[
  {
    "Compound": "CC(C)(C(=O)Nc1nccs1)[C@H]1c2ccccc2Oc2cc(O)ccc21",
    "EC50": "> 5 µM"
  },
  {
    "Compound": "CC(C)(C(=O)Nc1nccs1)[C@@H](c1ccccc1)c1ccc(O)c(Br)c1",
    "EC50": "> 5 µM"
  },
  {
    "Compound": "CC(C)(C(=O)Nc1nccs1)[C@@H](c1ccccc1)c1ccc(O)c(F)c1",
    "EC50": "> 5 µM"
  },
  {
    "Compound": "C[C@]12C=CC(=O)C=C1CC[C@@H]1[C@@H]2[C@@H](O)C[C@@]2(C)[C@H]1CC[C@]2(O)C(=O)CO [PREDNISOLONE]",
    "EC50": "0.002 µM"
  }
]

Items follow; give EC50 for each.
1. CC(C)(C(=O)Nc1nccs1)[C@@H](c1ccccc1)c1ccc(O)cc1
2. CC(C)(C(=O)Nc1nncs1)[C@H]1c2ccccc2Oc2cc(O)ccc21
3. CC(C)(C(=O)Nc1nncs1)[C@@H](c1ccccc1)c1ccc(O)c(F)c1

> 5 µM
> 5 µM
> 5 µM
